Assay: Plasma half-life (5 mg/kg) in african green monkey after intravenous administration
Format: ADME, organism-based
Conditions: chlorocebus aethiops
Reported Property: half-life (h)
Your answer is read as h, so omit the unit and give the number.

Any idea what its half-life is? The compound is O=C(Cn1c(Cl)cnc(NCC(F)(F)c2ccccn2)c1=O)NCc1ncccc1F [DPOC-4088]
1.6

====

Test: Oral bioavailability in dog after administration of 1 mg/kg of compound
Type: ADME, organism-based, Canis lupus familiaris
Conditions: in vivo
Reported Property: bioavailability (%)
Your answer is read as %, so omit the unit and give the number.

Any idea what its bioavailability is? The compound is Cc1cnc(NCC(F)(F)c2ccccn2)c(=O)n1CC(=O)NCc1ncccc1F
87

====

Test: Maximum plasma concentration in dog after peroral administration of 1 mg/kg dose of compound
Type: ADME, organism-based, Canis lupus familiaris
Parameters: dose 1 mg/kg, route oral
Settings: po
Reported Property: Cmax
The answer should read as a number with its unit following.

Any idea what its Cmax is? The compound is Cc1cnc(NCC(F)(F)c2ccccn2)c(=O)n1CC(=O)NCc1ncccc1F
5.64 µM

====

Test: Maximum plasma concentration in dog after administration of 0.5 mg/kg dose of compound
Type: ADME, organism-based, Canis lupus familiaris
Design: dose 0.5 mg/kg
Reported Property: Cmax (nM)
Your answer is read as nM, so omit the unit and give the number.

Any idea what its Cmax is? The molecule is COc1ccnc(CNC(=O)Cn2c(Cl)cnc(NCC(F)(F)c3ccccn3)c2=O)c1
530

====

Experiment: Maximum plasma concentration in african green monkey after peroral administration of 5 mg/kg dose of compound
Type: ADME, organism-based
Design: dose 5 mg/kg, route oral
Settings: chlorocebus aethiops, po
Reported Property: Cmax (nM)
Your answer is read as nM, so omit the unit and give the number.

Any idea what its Cmax is? The compound is O=C(Cn1c(Cl)cnc(NCC(F)(F)c2ccccn2)c1=O)NCc1ncccc1F
1710

====

Listed next: entries and their corresponding bioavailability.
Assay: Oral bioavailability in Rhesus monkey (dose 5 mg/kg)
Type: ADME, organism-based, Macaca mulatta
Settings: in vivo
Your answer is read as %, so omit the unit and give the number.

compound=Cc1cnc(NCC(F)(F)c2ccccn2)c(=O)n1CC(=O)NCc1ncccc1F unit_annotation=% data_value=12

Now take the following compound into account.
Any idea what its bioavailability is? The compound is O=C(Cn1c(Cl)cnc(NCC(F)(F)c2ccccn2)c1=O)NCc1ncccc1F [DPOC-4088]
5.2

====

This document collects Ki values reported for Serine protease 1 (Homo sapiens).
Your answer is read as µM, so omit the unit and give the number.

compound=Cc1nc(N)ccc1CNC(=O)Cn1c(C)cnc(NCCc2ccncc2)c1=O unit_annotation=µM data_value=4.6
compound=Cc1ccnc(CNC(=O)Cn2c(C)cnc(NCC(F)(F)c3ccccn3)c2=O)c1 unit_annotation=µM data_value=431
compound=Cc1cnc(NCCc2ccccc2)c(=O)n1CC(=O)NCc1ccncc1 unit_annotation=µM data_value=251

Any idea what its Ki is? The compound is Cc1ccnc(CNC(=O)Cn2c(C#N)cnc(NCC(F)(F)c3ccccn3)c2=O)c1F
61

Any idea what its Ki is? The compound is Cc1ccnc(CNC(=O)Cn2c(Cl)cnc(NCC(F)(F)c3ccccn3)c2=O)c1
429

Any idea what its Ki is? The compound is O=C(Cn1c(Cl)cnc(NCC(F)(F)c2ccccn2)c1=O)NCc1ncccc1Cl
567
